# measurement_notes: label from the status in PepcDB records

| entry_sequence | protein production |
| --- | --- |
| MAAVRKIHVTVKFPSKQFTVEVDRTETVSSLKDKIHIVENTPIKRMQLYYSGIELADDYRNLNEYGITEFSEIVVFLKSINRAKD | not failed |
| MSKIEIFEAAGCCATSSVVVSDEAVKWNASAEWAKKHGVNIQRYSLAKNPQQFLNTPVIRAFLNTSGMESLPATLLDGQLVMAGKLPSREDIARWAG | not failed |
| MNFVELAKKRYSCRNYQDRKVEKEKLEKVLDVARIAPTGGNRQPQRLIVIQEKEGINKLSKAANIYDAPLAILVCGDKDKVWTRPFDGKQLTDIDTSIVTDHMMLQATELGLASVWVCYFNPDIIREEFSLPDNLEPINILLMGYESKIPESPERHEKTRVPLSEIVSYETL | failed |
| MSYNVAILMSTYNGMDYLREQIESIRSQTYKQWNLYIRDDGSSDNTIDLIKTFVHQDTRIHFINADKQVNRGVKRSFLNLLSSVKADFYMFCDQDDYWLPNKVKLTLDAMISDYHNKPRLVFTNMNLVDSNLKVLDKASLSAVNISYWTSKDQLMFDNIVTGCTVMINNQLKQYVFPISAKKIVMHDWYIAQLASQLGDIQYVTDPTILYRQHESNQVGVNKSLFGKVKKLARFNDFQTGVILQISQGRLTQKKSQVVFSKTTQAFLNWNFTCPLILKVLPIIQNNFKKHTWPGTIALNLALLRRKKS | failed |

###

# measurement_notes: label from the status in PepcDB records
observation_type: protein production

| entry_sequence | result |
| --- | --- |
| VLTPRHIATLFTKLIPFKKNDKILDLCCGTGAFLIAGMNKLLSLKGIDAQNVKSNQLLGFEINPTMYICAISNMLFRGDGKSKIYNMDSINDDKVNKIISESAPTIGFINPPYSGKENKEDPTPKEITFLKKC | failed |
| MCGAWFFGARVFEFFTSLFESMKVLKLLPNFLTILRIVLSLFLLFLLLNTRTYFSFLTPFQTNMISSLVFLFAALTDLLDGYIARSYKAKSRFGEIFDPLADKILILSAFLGLVYLDRVNAWIPFVILGREFFISGLRVLAANEKKDIPVNALGKYKTVSQVVAIGALLADVTYSYALVAIAVFLTLYSGIDYTIKYYKS | failed |

###

# measurement_notes: label from the status in PepcDB records
observation_type: protein production

| entry_sequence | result |
| --- | --- |
| MTTVAVSSLPQGTSVTLRNVTKSFGTTKVLNGLDLNIHSGELVALLGPSGCGKSTLLRIIAGFEAADQGSVLLDDVDVSGVPTNRRDIGLVFQAYSLFPHLNAVENVMYGLSIRHVAKTEAKSSAVELLASVGLADYADRYPAQLSGGQQQRVALARALATKPRVLLLDEPLSALDAKVRVQLRDEIRALQLETHTTTIMVTHDQEEALVMADRIAVMYNGRFEQVGTPAEIYHSPATAFVAGFVGSMNVLPGVLSTDGTAQTIGCRVPVHAAAGAATLNPGPVDVFVRPEELRLQIANDDLNDHDAVLGTVTSTVLRGAFTSVMVAMGDGLHLRVDLPSKDAQLFTPGCSVMVRIADEPMLCTARRVECVA | failed |
| MVLLLRYRSLTINLTPLIPKSQKFHTLQSFRNPNFISIPKISASTNNPTTTTNRSISDATKFAKSVLFIPPGVEIEELTDDMVLPGSNIVIGPFAGHSQIKEVEFVKSSARARDCPKDDRPEIAILGRSNVGKSSLINCLVRKKEVALTSKKPGKTQLINHFLVNKSWYIVDLPGYGFAKVSDAAKTDWSAFTKGYFLNRDSLVCVLLLIDASVPPQKIDLDCANWLGRNNVPMTFVFTKCDKMKATKGKRPDENIKAFQQIIRENFKVHPPWILTSSVSGLGRDELLLHMSQLRNYWDQ | failed |

###

# measurement_notes: label from the status in PepcDB records

| entry_sequence | protein production |
| --- | --- |
| MDSQSENGSGAGNRTSIERRGDRELVVTRTFDAPRAMVYRAWSEPELFRRWWMPKSATGVTLVSCDMDVRTGGKYRLEFSTGGPQTMAFYGKYLDVVPNERIVWTNDEGEADAGEKGAITTVTFEDHGSQTLLRFHEVYPTAEALEEALQGSAAALPEQFDQLGEVLSGSGGKQ | failed |
| MFLGELTERPVSLYAAAVLRIGYGLLYLAFLLREFPHRDEIWGPGSPWTPELARQLFDQTGWVSILTLSDGRAYFEACYALALVTCALFLLGWRTRAVSVLFAVVVASFHARAIFMTDGGDNLVLLMAVYLVFTACGRRWSLDARRTRLRAGASPAASPPARQEADGFRRQLGASRRTLTAVLHNCGMFVIAAQVCFLYGSAGLYKVQGGSWGNGTALHYVLNLDLFRPWPELSLLTDEHDVLMAIACYLTVLLQVAFPFVLFGRLKYPVLTVLLGMHLGIAVLLGLPLFSGAMIVADAVFLPDRCYLLLGRLWRRAGRRTGSTEAGAPARGESAFLPPQSAVSSPRTAAAPVRGRRA | failed |

###

# measurement_notes: label from the status in PepcDB records
observation_type: protein production

The cases that follow already have their protein production on record.
| entry_sequence | protein production |
| --- | --- |
| MYDWFSEMRKKDPVYYDGNIWQVFSYRYTKEVLNNFSKFSSDLTGYHERLEDLRNGKIRFDIPTRYTMLTSDPPLHDELRSMSADIFSPQKLQTLETFIRETTRSLLDSIDPREDDIVKKLAVPLPIIVISKILGLPIEDKEKFKEWSDLVAFRLGKPGEIFELGKKYLELIGYVKDHLNSGTEVVSRVVNSNLSDIEKLGYIILLLIAGNETTTNLISNSVIDFTRFNLWQRIREENLYLKAIEEALRYSPPVMRTVRKTKERVKLGDQTIEEGEYVRVWIASANRDEEVFHDGEKFIPDRNPNPHLSFGSGIHLCLGAPLARLEARIAIEEFSKRFRHIEILDTEKVPNEVLNGYKRLVVRLKSNE | not failed |
| MPNQVLFCITKMRYEEKRIYHYLEESGLSIKIMLDSSNLDEVVAHNSDYCLCIVRVMSQHRAFRIAEYMEALGIPTLNSSRAIQICADKAIQALILANRDVIKQPHFSILRNYEDLSNFNGKMVVKPVSSSWGRGISLIENEDALTTWKISHQELDIQNQNLPYLIQEFIDKPNYDVRIVIINTKPVVAFKRVSANNWKTNTHLGATVVPIVIDDSINKIVTEIIKVVGPGIYGLDLMKNRQNEWIFCEINQNPEFAHSWKIHHVDVAEKIAQYVSSKVKVGQKNASTHLEHHHHHH | failed |
| MSFVECPYHSPAERLVAEADEGGPSAITGMGLCFRCLLFSFSGRSGVEGGRVDLNVFGSLGLQPWIGSSRCWGGPCSSALRCGWFSSWPPPSKSAIPIGGGSRGAGRVSRWPPPHWLEAWRVSPRPLSPLSPATFGRGFIAVAVIPGLWARGRGCSSDRL | failed |
| MKSLTPHLLLCSFFTSIAPALGEGFRNKRVAFIPTAAAHEEYTAYVDSARSSWKELGSNITDVDIARMPLRTATEALEQAEIIYLSGGNSFYLLDCLRSTEIDQIIRGRLAEGAILVGESAGAIVCSPNIAYIQPMDRVPDNYSQADYTGLNLVDFFPVPHYLAPPFVKSSKEVVAQHASLPLELMNNAEAVIVEGPQRTKISSEHQ | failed |
| MNLKQIAKDTAKTLQSYLTYQALMTVLAQLGETNPPLALWLHTFSVGKVQDGEAYVKELFREQPDLALRIMTVREHIAEEVAEFLPEMVRSGIQQANMEQRRQHLERMTHLSLSNPSPESEQQTISDTDWDH | failed |
| MADKQPAVNRVVAALLVGGALIAAGYAIRHTVSCFLLSFVTAYLLDPVLVVMERRGVRRPWGILFLYALLAVFSVFFFIVLVPFLSLRWEAFITGLPAYLQKGKQIVFAWKSRAVPPYAVEEWRWLFDTAAGQADKLLAKLGAGVYAAAEGLVFNLFNLVLAPILVFFMLWYKKEFMETAAAWLPASRREVLLALGREVNESIGGYIRGQFMVSVIVAVLSTVALFVIGIDYPIVNGIFAGLASVLPFIGVILATLPPLFFAYVQYESGMVLLQVIGAFSVIYFLEGYLVKPLVFKESMDLNPLVTIIVVMVFGELMGFWGILLAIPIAAAVRAAADHLRRGDFRS | failed |

Ask: State, in one line, measured protein production of MNQKMIIGNAEAICLPELGITHLEARIDTGAQTSSLHVDNIDCFEKDGQSYVAFDLHPDVYHLEQVVRCTAKLKANRKVKSSNGTFEHRCVITTMLRLGDQEWPIDITLTNREKMTYMMLLGRQGMADKVLVDPSQSHLLAS
Result: not failed

###

# measurement_notes: label from the status in PepcDB records
observation_type: protein production

Answered cases to consult:
| entry_sequence | protein production |
| --- | --- |
| MKFKIHSDITYQVMSPTTFIFNVHALRTESQHILDESLIVTPPIEIEEFSYNSGTSRFVRLKATENTTFSMSYTATVDTQYKVIDQRQELETVPVVDLDGDIIPFLFPSRYCQSDKLQKLAYKEFGKIENVYSKVLAITDWIYNNVEYISGSTNSQTSAFDTITERAGVCRDFAHLGIALCRALSIPARYFTGYAFKLNPPDFHACFEAYIGGNWIIFDATRLVPLNGLVKIATGRDAADAAVASIFGNASSTNMHVECASLDTDFTPFWYDKNSLKGLSFQ | not failed |
| MTSHTLTQGGRTTATIALLLAMLLWSSSFIAMKIALTGFDPMVMIFGRMAIASVIFIAVWRRNFSGVRYRAGDWKLLGFMTMCEPCLYFVFEAYALEYTSASQAGMIVAMMPLSVAVAARFVLKEHMARSAWAGFCLAIAGVVWLSLGGQVTENAPNPMLGNALEVCAMLTATGYVISAKRLSSTYPPLFITAVQSLAGFVFFLPVLALPGVTLPTSLPLTPTLAVLYLGVCITLGAYGLYNYGVSRLPAGQAASYINLIPVLTLIMGRVVLGDELSPSQYLASLLVLAGVVLSQRRAAA | failed |
| MEEGDFFNCCFSEISSGMTMNKKKMKKSNNQKRFSEEQIKSLELIFESETRLEPRKKVQVARELGLQPRQVAIWFQNKRARWKTKQLEKEYNTLRANYNNLASQFEIMKKEKQSLVSELQRLNEEMQRPKEEKHHECCGDQGLALSSSTESHNGKSEPEGRLDQGSVLCNDGDYNNNIKTEYFGFEEETDHELMNIVEKADDSCLTSSENWGGFNSDSLLDQSSSNYPNWWEFWS | failed |
| MYEVELKGYANDEIFEKVRETFEFMRKEIHEDIYYQHPCRDFSKTDEALRIRIKRFNGHNEVFLTYKGPKIDEKSKTRLEIEVEIQEDVDKYFELLDRLGFKEVLKVVKTREKYYVEKGVTITLDEVEGLGKFIEIETLVKEKDEIPEAVEKLEKILRELGVEKFERRSYLELLLEKRTELNI | not failed |
| MDAKQLSKRLATVGAFVQPGARVADIGSDHAYLPANLALNHQISYGVAGEVVRGPFENARHEIQKLGLTDRLVARLADGLAAIEPADRIDTVTIAGMGGPLIRHILEQGPTQLAGVQRLVLEPNVGEATVREWLAANQFQIVAERILAEDGHTYEILCADRVDHQVTYTTAEQMFGPFLLAEKSPVFIAKWQRELQRVNAAVAQMQRAKVIPEEQLALAHAKIKLIEGVLTDASK | failed |
| MENEKLPYISVIIIAYNRKEFLLDAIKSALNQTLDREYYEIIVIKNFQDDTIDNFIKENNIKGIISENKSLGGKISEALYVSKGEIVSFLEDDDLFFPNKLREVYDIFISNPNLVYYHNNFIKTNNRLFEIDYSENKKNKKIFLKLIELNNIKTINYLISKKLIAFNMSAITIRKSYFNDCLDILENIRIAHDMCFFFCLSGKSDTSKEILIYDKPLSIWFIHNSWSNTSCDLEIKNFKNKNFTIAKETLNAIVYIFNEFCIKNNLYNFYDNKQPLCDYLKLTISARKSQLYLLNEYEININDIKLFFKFVTMRKSIYLSGAFILVLFGKFISKKLSTKIFLYISFLLNTI | failed |
| MYFFVPTANSKINQMIFYLSSMNLDMIKEYILSFGIWAPITSFLLMVLQSVIAPIPAFLITLSNAAIFGWVKGAILSWSSAMAGAALCFYIARGLGRDAVEKLTSKFALKDIDGFFEKYGKHTILIARLLPFISFDLVSYAAGLTSMNFWSFFIATGIGQLPATIVYSYVGGMLTGGAQLLMSGLLILFALSIAIYVGKKVWNEKRGKNDK | failed |
| MRFLLMRSLLVHPCGGSIINVRSTTTSAQYVASRSRDPVFEKLMDKYKNLLKVIAIQDLTLANPTADPPSLSIEFLSRLSQKLHLNRGAASFLRKYPHIFHVLYDPVKAEPFCRLTDVAMEISRQEALAITATLSLVVDRLVRLLSMSISKSIPLRAVFKVWRELGLPDDFEDSVISKNPHLFKLSDGHESNTHILELVQEEEKRLEFEAAVEKWRVVECSKEDCSVDRTEIQFSFKHSYPPGMRLSKTFKAKVKEWQRLPYVGPYEDMVGKKKSRSGVMGIEKRAVAIAHEFLNLTVEKMVEVEKISHFRKCFGIDLNIRDLFLDHPGMFYVSTKGKRHTVFLREAYERGRLIDPNPVYDARRKLLDLVLLGRHAALSESGNTSMSEQE | failed |

Ask: Query protein production for MAGKRKSRRGFGRVRKLPSGRFQARYPGPDGVLRPADRTFATTTDADRWLMRKRIEIEEGCWLDPAEGQTTVRDWAARWLAAVSPQLKHKTQASYRSLINSLINPVLGDRELSSLRPITVTEWVGAMRTKGLSASRIRQAYRVLSQIMRSAVDNDMIPQTPCRGVRLPRMPQTEPHILTPLEASRIVKGATKPHDLLIALLAYAGLRVGEAFALRRVDVDVSGGFVLVDENLAEANGVLVFDTPKSHQKRLLRVGPSLAKRLGRHLETLPGGDDALLFTTPGGKPLRYNQWRKAYFDPAVSAAGLTDVTPHDLRASHGTWVADRYGVMTAAHRLGHSNASVTTRHYARPVAGRDDQVAEAADSWLSGSEDNDDGSAAVPA
Result: failed

Ask: Answer with reported protein production of MRIVIAGGHGQIALRLERLLAARGDEVAGIVRKAEQADDLRAAGAEPVVLDLESASVEEVAERLRGADAAVFAAGAGPGSGVARKDTVDKAAAVLFADAAVRAGVRRFLIVSSMGADPGHQGDEIFDVYLRAKGEADAYVSSLDALDWTILRPGALTDDAGTGLVRLEAHTGRGPVPRDDVAAVLAELVDTPATNGLALELISGSAPVSVAVKSVAGN
Result: failed
